- MEASUREMENT_TARGET: human Nav1.7 (Homo sapiens (Human))
- Sequence (Q15858 whole entry): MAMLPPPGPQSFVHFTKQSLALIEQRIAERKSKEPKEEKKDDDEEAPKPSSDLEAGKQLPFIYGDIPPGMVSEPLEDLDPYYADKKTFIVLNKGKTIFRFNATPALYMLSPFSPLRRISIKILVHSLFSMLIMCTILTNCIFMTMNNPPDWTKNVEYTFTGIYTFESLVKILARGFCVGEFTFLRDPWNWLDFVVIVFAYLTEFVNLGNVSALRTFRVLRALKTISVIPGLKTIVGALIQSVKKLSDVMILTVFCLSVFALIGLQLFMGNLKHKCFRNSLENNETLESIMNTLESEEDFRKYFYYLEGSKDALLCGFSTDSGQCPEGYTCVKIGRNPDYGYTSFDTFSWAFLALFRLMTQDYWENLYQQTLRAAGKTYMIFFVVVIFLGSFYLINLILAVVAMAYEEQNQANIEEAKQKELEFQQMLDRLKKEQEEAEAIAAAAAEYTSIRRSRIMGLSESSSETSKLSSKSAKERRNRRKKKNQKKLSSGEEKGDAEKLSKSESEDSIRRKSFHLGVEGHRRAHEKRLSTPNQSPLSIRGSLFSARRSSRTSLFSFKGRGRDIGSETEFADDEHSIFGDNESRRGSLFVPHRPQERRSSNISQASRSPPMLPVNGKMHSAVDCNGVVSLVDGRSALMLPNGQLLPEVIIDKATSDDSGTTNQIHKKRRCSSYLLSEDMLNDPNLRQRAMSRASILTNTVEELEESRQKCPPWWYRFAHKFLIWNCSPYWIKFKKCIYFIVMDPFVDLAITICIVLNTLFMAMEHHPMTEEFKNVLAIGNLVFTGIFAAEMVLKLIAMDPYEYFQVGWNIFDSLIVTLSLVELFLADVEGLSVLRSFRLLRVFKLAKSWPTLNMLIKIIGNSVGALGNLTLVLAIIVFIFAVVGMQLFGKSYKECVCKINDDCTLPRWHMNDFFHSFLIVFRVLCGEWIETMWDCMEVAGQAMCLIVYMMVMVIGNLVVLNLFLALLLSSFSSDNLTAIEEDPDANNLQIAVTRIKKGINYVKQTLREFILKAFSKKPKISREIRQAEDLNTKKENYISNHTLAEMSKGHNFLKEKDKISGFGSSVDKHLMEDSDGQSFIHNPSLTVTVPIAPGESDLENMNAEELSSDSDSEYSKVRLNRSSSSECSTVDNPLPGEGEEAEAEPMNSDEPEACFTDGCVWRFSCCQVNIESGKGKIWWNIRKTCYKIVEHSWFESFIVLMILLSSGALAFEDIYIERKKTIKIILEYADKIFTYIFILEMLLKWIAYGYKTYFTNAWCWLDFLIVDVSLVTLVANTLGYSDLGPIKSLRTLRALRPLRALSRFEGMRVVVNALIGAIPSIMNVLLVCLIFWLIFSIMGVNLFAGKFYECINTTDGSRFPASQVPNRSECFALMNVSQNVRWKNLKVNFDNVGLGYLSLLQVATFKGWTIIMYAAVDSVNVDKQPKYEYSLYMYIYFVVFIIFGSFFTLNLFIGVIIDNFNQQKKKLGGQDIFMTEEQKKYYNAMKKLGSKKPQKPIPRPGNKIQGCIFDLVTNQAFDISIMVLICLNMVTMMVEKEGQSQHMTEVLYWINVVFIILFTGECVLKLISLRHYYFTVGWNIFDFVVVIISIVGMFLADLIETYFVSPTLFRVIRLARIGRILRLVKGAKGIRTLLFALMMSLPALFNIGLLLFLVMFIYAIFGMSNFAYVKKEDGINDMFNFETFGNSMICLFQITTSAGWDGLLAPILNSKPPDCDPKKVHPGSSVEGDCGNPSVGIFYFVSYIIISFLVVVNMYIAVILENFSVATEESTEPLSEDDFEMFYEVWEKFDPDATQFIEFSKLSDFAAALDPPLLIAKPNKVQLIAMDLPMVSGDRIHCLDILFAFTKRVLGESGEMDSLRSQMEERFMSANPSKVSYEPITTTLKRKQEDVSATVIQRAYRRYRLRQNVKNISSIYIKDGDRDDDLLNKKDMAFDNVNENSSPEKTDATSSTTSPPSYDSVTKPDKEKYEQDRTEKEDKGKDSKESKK
- ASSAY_NAME: FRET-based membrane potential assay, recombinant human sodium channel Nav1.7
- CONDITIONS_USED: HEK293 cells stably expressing recombinant human Nav1.7; depolarization with veratridine (EC80) + scorpion venom
Label Fulfilled when IC50 < 700 nM; otherwise Not fulfilled.

Some solved entries appear below for comparison.
>  <CHEMICAL_SMILES>
O=C(CN1CCN(c2cccc3c2cnn3-c2ccccc2F)C1=O)N1CCC1

>  <DISCRETE_LABEL>
Not fulfilled

$$$$
>  <CHEMICAL_SMILES>
CCC1(O)CN(C(=O)CN2CCN(c3cccc4c3cnn4-c3ccccc3F)C2=O)C1

>  <DISCRETE_LABEL>
Not fulfilled

$$$$
>  <CHEMICAL_SMILES>
O=C(CN1CCN(c2cccc3c2cnn3-c2ccccc2)C1=O)N1CC[C@H](F)C1

>  <DISCRETE_LABEL>
Fulfilled

$$$$
>  <CHEMICAL_SMILES>
COC(=O)[C@H]1CCCN1C(=O)CN1CCN(c2cccc3c2cnn3-c2ccccc2F)C1=O

>  <DISCRETE_LABEL>
Not fulfilled

$$$$
>  <CHEMICAL_SMILES>
O=C(CN1CCN(c2cccc3c2cnn3-c2ccccc2F)C1=O)NC1CCC1

>  <DISCRETE_LABEL>
Not fulfilled

$$$$
>  <CHEMICAL_SMILES>
O=C1N(CC(=O)N2CCC[C@@H]2c2ccccc2)CCN1c1cccc2c1cnn2-c1ccccc1F

>  <DISCRETE_LABEL>
Not fulfilled

$$$$

Request: API: query returns whether the molecule falls strictly under 700 nM in IC50. Query: "O=C1N(CC2CC2)CCN1c1cccc2c1cnn2-c1ccccc1F"
Result: Fulfilled

Request: Does the reported IC50 of "O=C(CN1CCN(c2cccc3c2cnn3-c2ccccc2F)C1=O)N1CC[C@H](C(F)(F)F)C1" stay below 700 nM?
Result: Not fulfilled

Request: Consider the molecule "CC(C)(O)[C@H]1CCN(C(=O)CN2CCN(c3cccc4c3cnn4-c3ccccc3F)C2=O)C1" . Is its IC50 strictly less than 700 nM?
Result: Not fulfilled

Request: Take the molecule "O=C(CN1CCN(c2cccc3c2cnn3-c2ccccc2F)C1=O)NCC1CC1" and say whether its IC50 is less than 700 nM.
Result: Not fulfilled

Request: Does the reported IC50 of "O=C1N(Cc2ncco2)CCCN1c1cccc2c1cnn2-c1ccccc1F" stay below 700 nM?
Result: Not fulfilled
